# experimental_system: T1, Human Siglec-9 mutant M8 (human, UniProt Q9Y336 18-463)
# T1 construct: Expressed on HEK293T cells; also called Mutant 8
# T1 sequence (Q9Y336 other isoform, or with tags, fused parts or gaps mutant): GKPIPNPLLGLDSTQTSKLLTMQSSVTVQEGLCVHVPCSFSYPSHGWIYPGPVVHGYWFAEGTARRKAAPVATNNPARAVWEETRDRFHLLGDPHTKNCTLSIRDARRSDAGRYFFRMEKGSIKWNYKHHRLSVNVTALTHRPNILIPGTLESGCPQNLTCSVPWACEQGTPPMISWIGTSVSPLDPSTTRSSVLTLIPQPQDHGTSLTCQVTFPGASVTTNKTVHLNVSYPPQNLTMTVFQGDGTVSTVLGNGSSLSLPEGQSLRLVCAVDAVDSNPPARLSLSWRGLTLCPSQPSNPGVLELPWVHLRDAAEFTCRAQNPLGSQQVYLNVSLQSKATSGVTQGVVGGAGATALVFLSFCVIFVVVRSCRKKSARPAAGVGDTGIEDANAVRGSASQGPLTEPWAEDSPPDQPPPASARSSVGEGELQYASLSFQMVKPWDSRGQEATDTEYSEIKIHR
# assay_overview: flow cytometry, HEK293T transfectants
reported_property: binding result

Exam item: So what's the measured binding result for this one? mAb3 (antibody, human IgG1, V domains shown) VH: EVQLLETGPGLVKPSQSLSLTCTVTGYSITGGFAWNWIRQFPGNTLEWMGYIGYGGSTSYNPSLNSRISITRDTSKNHFFLQFNSVTTEDSATYYCARGDYLFAYWGQGTLVTVSA VL: DILMTQSPASLSASVGETVSITCRASGNIHNYLAWYLQRQGKSPQLLVYNAKTLADGVPSRFSGTGSGTQFSLKINSLQPEDFGSYYCQHFWSTPRTFGGGTKLEIK
Marked response: binds

Exam item: Now the same for Fab.D (Fab of mAbD) (Fab, V domains shown) VH: QIQLVQSGPELKKPGETVKISCKASGYTFTDYSMHWVKQAPGKGLKWMGWIITETGEPTYADDFRGRFAFSLETSANTAYLQINNLKNEDTATYFCARDFDGYWGQGTTLTVSS VL: DILMTQSPASLSASVGETVTITCRASENIYSYLAWYQQKRGKSPQFLVYNAKTLTEGVPSRFRGSGSGTQFSLKINSLQPEDFGTYYCQHHYGFPWTFGGGTKLEIK
Marked response: binds

Exam item: Input Fab1 (Fab of mAb1) (Fab, V domains shown) VH: DVQLQESGPGLVKPSQSLSLTCTVTGYSITGGFAWNWIRQFPGNTLEWMGYIGYGGSTSYNPSLNSRISITRDTSKNHFFLQFNSVTTDDSATYYCARGDYLFAYWGQGTLVTVSA VL: DIVMTQSHKFMSTSVGDRVSITCKASQDVNTAVAWYQQKPGQSPKLLIYSASYRYTGVPDRFTGSGSGTDFTFTISSVQAEDLAVYYCQQHYSTPRTFGGGTKLEIK
Marked response: binds
